# literature pull: Prostaglandin G/H synthase 1 (Homo sapiens) IC50
# Sequence (P23219 whole entry): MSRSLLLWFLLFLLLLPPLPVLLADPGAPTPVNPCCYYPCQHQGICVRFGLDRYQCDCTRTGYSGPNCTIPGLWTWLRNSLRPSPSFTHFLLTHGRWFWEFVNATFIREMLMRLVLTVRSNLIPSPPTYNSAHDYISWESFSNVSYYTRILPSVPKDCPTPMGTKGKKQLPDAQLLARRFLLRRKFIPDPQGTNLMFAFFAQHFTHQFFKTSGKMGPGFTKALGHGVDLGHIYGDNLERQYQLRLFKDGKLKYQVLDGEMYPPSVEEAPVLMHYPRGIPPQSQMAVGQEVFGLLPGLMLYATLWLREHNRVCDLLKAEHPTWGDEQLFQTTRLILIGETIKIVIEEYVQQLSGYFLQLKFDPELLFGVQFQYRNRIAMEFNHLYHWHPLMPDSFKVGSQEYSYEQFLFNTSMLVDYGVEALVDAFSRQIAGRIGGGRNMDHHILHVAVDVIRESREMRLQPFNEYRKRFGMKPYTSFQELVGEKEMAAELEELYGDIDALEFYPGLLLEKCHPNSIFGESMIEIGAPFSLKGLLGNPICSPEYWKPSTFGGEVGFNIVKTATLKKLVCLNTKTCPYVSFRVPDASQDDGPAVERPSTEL
measure.name: IC50 (µM)

INSERT INTO results (compound, measure_name, u, censoring_operator, numeric_value) VALUES
  ('CS(=O)(=O)c1ccc(-n2ccnc2-c2ccccc2)cc1', 'IC50', 'µM', '>', 100),
  ('Oc1cc(O)cc(/C=C/c2ccc3ccccc3c2)c1', 'IC50', 'µM', '=', 18.4),
  ('Nc1ccnc(NC(=O)c2cccc(C(F)(F)F)c2)c1', 'IC50', 'µM', '>', 100),
  ('Cc1cccc(Nc2ccccc2C(=O)O)c1C', 'IC50', 'µM', '=', 25),
  ('C/C(=N/OCc1ccccc1Nc1c(Cl)cccc1Cl)C(=O)O', 'IC50', 'µM', '>', 1),
  ('Cc1ccc(-n2nc(COC(=O)COc3cc(O)c4c(=O)cc(-c5ccccc5)oc4c3)cc2-c2cccc(C)c2)cc1', 'IC50', 'µM', '=', 32.2),
  ('CCOC(=O)Cn1nc(-c2ccc(S(C)(=O)=O)cc2)c(-c2ccc(F)cc2)c1C(F)(F)F', 'IC50', 'µM', '>', 100),
  ('COc1cc2c(cc1F)-c1c(c(C(F)F)nn1-c1ccc(S(N)(=O)=O)cc1)SC2', 'IC50', 'µM', '>', 100),
  ('COc1ccc(C2SCC(=O)N2CCN2C(=O)CSC2c2ccc(OC)cc2)cc1 (stereo not given)', 'IC50', 'µM', '=', 53.7),
  ('COc1cc2c(cc1F)-c1c(c(C(F)(F)F)nn1-c1ccc(S(C)(=O)=O)cc1)SC2', 'IC50', 'µM', '>', 100);

====

pIC50: −log10 of the molar value.
Field pIC50: reported value for Prostaglandin G/H synthase 1 (Homo sapiens, UniProt P23219); entries drawn from several documents.
measure.name: pIC50

INSERT INTO measurements (compound, measure_name, censoring_operator, numeric_value) VALUES
  ('Cc1cc(Cl)c(C)c2c1OC(C(F)(F)F)C(C(=O)O)=C2 (stereo unspecified)', 'pIC50', '=', 5.59),
  ('CCc1ccc(-c2nc(C)oc2-c2ccc(S(C)(=O)=O)cc2)s1', 'pIC50', '<', 4.00),
  ('Cc1nc(C2CCCC2)c(-c2ccc(S(C)(=O)=O)cc2)o1', 'pIC50', '<', 4.00),
  ('Cc1nc(C2CCCCC2)c(-c2ccc(S(C)(=O)=O)cc2)o1', 'pIC50', '<', 4.00),
  ('COc1cc2nc(C)[nH]c2cc1C(=O)c1ccc(Nc2ccc(F)cc2F)cc1', 'pIC50', '<', 4.10),
  ('CC/C(=C\c1cc(O)cc(O)c1)c1ccc(N(C)C)cc1', 'pIC50', '=', 4.52),
  ('Cc1ccc(C2=NN(C3=NC(=O)CS3)C(c3ccc(F)cc3)C2)cc1C (stereo unspecified)', 'pIC50', '=', 4.39),
  ('Cc1ccc(C2CC(c3ccc(C)c(C)c3)=NN2C2=NC(=O)CS2)cc1 (stereo unspecified)', 'pIC50', '=', 4.34),
  ('COc1cc(/C=N/Nc2nc(-c3ccc(S(C)(=O)=O)cc3)cs2)cc(OC)c1O', 'pIC50', '<', 3.00),
  ('Cc1ccc(C2CC(c3ccc(Cl)c(Cl)c3)=NN2C2=NC(=O)CS2)cc1 (stereo unspecified)', 'pIC50', '=', 4.35),
  ('COc1ccc(C2=C(c3ccc(S(C)(=O)=O)cc3)CCC2)cc1', 'pIC50', '=', 5.30),
  ('Nc1cccc(NC(=O)c2cccc(C(F)(F)F)c2)c1', 'pIC50', '=', 5.14),
  ('O=C(O)C1=Cc2ccc(S(F)(F)(F)(F)F)cc2OC1C(F)(F)F (stereo unspecified)', 'pIC50', '<', 5.00),
  ('O=c1c(-c2ccc(O)cc2)coc2cc(O)cc(O)c12', 'pIC50', '=', 4.10),
  ('COc1cc(/C=C/CO)ccc1O[C@@H]1O[C@H](CO)[C@@H](O)[C@H](O)[C@H]1O', 'pIC50', '=', 4.12),
  ('CCCCCC(=O)Cc1cc(O)cc(O)c1C(=O)Oc1cc(O)c(C(=O)O)c(CCCCC)c1', 'pIC50', '<', 4.52),
  ('NS(=O)(=O)c1ccc(N2N=C(C(F)(F)F)CC2c2ccc3c(c2)OCCO3)cc1 (stereo unspecified)', 'pIC50', '=', 4.38),
  ('COc1ccc(/C(C)=C/c2cc(O)cc(O)c2)cc1', 'pIC50', '=', 4.91),
  ('Nc1c(C(=O)N/N=C/c2ccc(Cl)cc2)cnn1-c1ccc(S(N)(=O)=O)cc1', 'pIC50', '=', 5.10),
  ('Nc1cccc(NC(=O)c2ccc(C(F)(F)F)cc2)c1', 'pIC50', '=', 4.85),
  ('CCc1ccc(-n2c(-c3ccc(S(N)(=O)=O)cc3)coc2=O)cc1', 'pIC50', '=', 4.98);
